target: T1, human TMEM106B (human, UniProt Q9NUM4 2-274); test: FACS HEK+huTMEM, 0.01 ug/ml
T1 construct: Full-length, on transiently transfected HEK293 cells, or natively expressed on HeLa, U251 and A549 cells; also called huTMEM106B; huTMEM
VALUE TYPE: MFI

Use the examples below as a reference point.
| BINDER | MFI |
| --- | --- |
| anti-TMEM106B antibody TM-50 (antibody, V domains shown, mouse IgG from hybridoma) VH: QVQLKESGPVLVAPSQSLSITCTVSGFSLTNYGVHWVRQPPGKGLEWLGVIWAGGNTNYNSALMSRLSISKDNSKSQVFLKMNSLQTDDTAMYYCAKEAKLLRSYAMDYWGQGTLVTVSA VL: DVQMTQTTSSLSASLGDRVTISCRASQDINNYLYWYQQKPDGTVKLLIYYTSMLHSGVPSRFSGSGSGTDYSLTISNLEQEDIATYFCQQGSTLMYTFGGGTKLEIK | 294 |
| anti-TMEM106B antibody TM-42 (antibody, V domains shown) VH: QVQLQQSGAELAKPGASVKLSCKASGYTFTNYWMHWVKKRPGQGLEWIGYINPSSGYTKYNQKFKDKATLTADKSSNTAYMQLSSLTYEDSAVYYCTREGGSISDWYFDVWGTGTTVTVSS VL: DIVMTQAAPSLPVTPGESVSISCRSSKSLLHSNGNTYLYWFLQRPGQSPQLLIYRMSNLASGVPDRFSGSGSGTAFTLRISRVEAEDVGVYYCMQHLEYPYTFGGGTKLEIK | 2070 |

# evaluate next
Can you share its MFI? I mean this binder: anti-TMEM106B antibody TM-52 (antibody, V domains shown, mouse IgG from hybridoma) VH: QVQLQQPGAELVKPGASVKLSCKASGYTFTNYWMHWVKQRPGQGLDWIGNIDPSDSETHYNQKFKDKATLTVDKVSSTAYMQLSSLTSEDSAVYYCARRGYYGRSPFAYWGQGTLVTVSA VL: ENVLTQSPAIMSASPGEKVTMTCSASSSVSYMHWYQQKSNTSPKLWIYDTSKLASGVPGRFSGSGSGNSYSLTISSAEAEDVATYYCFQGSGYPLTFGAGTKLELK 451
